- Assay Details: melting temperature; fluorescence melt of hairpins on a sequencing array, two-state fit, raised by 9.35 °C to match UV melts
- Run Conditions: sodium 0.088 M
We begin with a simple list: items and their reported Tm.
API: value field is a number in °C; no unit string.

{"Sequence String": "GATCGTAATAACGATC ((((((....))))))", "Readout": "Tm", "Unit Info": "°C", "Quantitative Result": 53.9}
{"Sequence String": "GCTACAGAAATGTAGC ((((((....))))))", "Readout": "Tm", "Unit Info": "°C", "Quantitative Result": 55.4}
{"Sequence String": "GTTTGAGGAAACTCAGAC ((.((((....)))).))", "Readout": "Tm", "Unit Info": "°C", "Quantitative Result": 39}

The record that follows has no Tm shown yet.
Would you kindly share the measured Tm for GATATGGGAAACCATACC (.(((((....))))).) ?
29.5
